# PROTOCOL: Selectivity index, ratio of CC50 for HEK293T cells to EC50 for full length Gaussia princeps Gluc-tagged Chikungunya virus IMT
# Type: toxicity
# MEASUREMENT CONDITIONS: human, read-out: Ratio CC50/EC50
Catalogue of selectivity ratio readings, one per entry.
TEST READOUT: selectivity ratio

compound_string=COc1ccc(Cn2c(C(=O)N3CCC(C(=O)NC(C)C)CC3)cc3sc(Br)cc32)cc1 reported_result="> 51"
compound_string=CCCNC(=O)[C@@H]1C[C@H]2CCC[C@@H](C1)[C@@H]2NC(=O)c1cc2scnc2n1Cc1ccc(OC)cc1 reported_result="> 2.2"
compound_string=[2H]C([2H])(c1ccc(OC)cc1)n1c(C(=O)N2CCC(C(=O)NC([2H])(C([2H])([2H])[2H])C([2H])([2H])[2H])CC2)cc2sc(Br)cc21 reported_result="> 58"
compound_string=CCCNC(=O)[C@@H]1C[C@H]2CCC[C@@H](C1)[C@@H]2NC(=O)c1cc2sc(Br)nc2n1Cc1ccc(OC)cc1 reported_result="> 14"

Values from ChEMBL document CHEMBL4007509
